- Tested on: MDA-MB-231
- method: Antiproliferative activity against human MDA-MB-231 cells by MTT assay
- Assay type: functional, cell-based
pIC50: −log10 of the molar value.
measurement_type: pIC50

smi=CC[C@@H](C(=O)[C@@H](C)[C@@H](O)[C@H](C)[C@@H]1O[C@@H]([C@@H](CC)C(=O)O)CC[C@@H]1C)[C@H]1O[C@]2(C=C[C@H](OC(=O)c3ccc(F)cc3)[C@]3(CC[C@@](C)([C@H]4CC[C@](O)(CC)[C@H](C)O4)O3)O2)[C@H](C)C[C@@H]1C target_entity=MDA-MB-231 measurement_type=pIC50 experimental_result=6.10
smi=CCC(=O)O[C@H]1C=C[C@]2(O[C@H]([C@@H](CC)C(=O)[C@@H](C)[C@@H](O)[C@H](C)[C@@H]3O[C@@H]([C@@H](CC)C(=O)O)CC[C@@H]3C)[C@@H](C)C[C@H]2C)O[C@@]12CC[C@@](C)([C@H]1CC[C@](O)(CC)[C@H](C)O1)O2 target_entity=MDA-MB-231 measurement_type=pIC50 experimental_result=5.72
smi=CC[C@@H](C(=O)[C@@H](C)[C@@H](O)[C@H](C)[C@@H]1O[C@@H]([C@@H](CC)C(=O)O)CC[C@@H]1C)[C@H]1O[C@]2(C=C[C@H](OC(=O)c3ccccc3)[C@]3(CC[C@@](C)([C@H]4CC[C@](O)(CC)[C@H](C)O4)O3)O2)[C@H](C)C[C@@H]1C target_entity=MDA-MB-231 measurement_type=pIC50 experimental_result=6.10
smi=CC[C@@H](C(=O)[C@@H](C)[C@@H](O)[C@H](C)[C@@H]1O[C@@H]([C@@H](CC)C(=O)O)CC[C@@H]1C)[C@H]1O[C@]2(C=C[C@H](OC(=O)CC(C)C)[C@]3(CC[C@@](C)([C@H]4CC[C@](O)(CC)[C@H](C)O4)O3)O2)[C@H](C)C[C@@H]1C target_entity=MDA-MB-231 measurement_type=pIC50 experimental_result=5.56
smi=CC[C@@H](C(=O)[C@@H](C)[C@@H](O)[C@H](C)[C@@H]1O[C@@H]([C@@H](CC)C(=O)O)CC[C@@H]1C)[C@H]1O[C@]2(C=C[C@@H](O)[C@]3(CC[C@@](C)([C@H]4CC[C@](O)(CC)[C@H](C)O4)O3)O2)[C@H](C)C[C@@H]1C target_entity=MDA-MB-231 measurement_type=pIC50 experimental_result=5.16
smi=CC[C@@H](C(=O)[C@@H](C)[C@@H](O)[C@H](C)[C@@H]1O[C@@H]([C@@H](CC)C(=O)O)CC[C@@H]1C)[C@H]1O[C@]2(C=C[C@H](OC(C)=O)[C@]3(CC[C@@](C)([C@H]4CC[C@](O)(CC)[C@H](C)O4)O3)O2)[C@H](C)C[C@@H]1C target_entity=MDA-MB-231 measurement_type=pIC50 experimental_result=5.71

* * *

- Tested on: JIMT-1
- method: Antiproliferative activity against human JIMT1 cells
- Format: functional, cell-based
Parameter: log10 IC50. Scope: all listed entries.
measurement_type: log10 IC50 (log10 of the value in µM)

smi=CC[C@@H](C(=O)[C@@H](C)[C@@H](O)[C@H](C)[C@@H]1O[C@@H]([C@@H](CC)C(=O)O)CC[C@@H]1C)[C@H]1O[C@]2(CC[C@@H](O)[C@]3(CC[C@@](C)([C@H]4CC[C@](O)(CC)[C@H](C)O4)O3)O2)[C@H](C)C[C@@H]1C experimental_result=0.00
smi=CC[C@@H](C(=O)[C@@H](C)[C@@H](O)[C@H](C)[C@@H]1O[C@@H]([C@@H](CC)C(=O)O)CC[C@@H]1C)[C@H]1O[C@]2(CCC(=O)[C@]3(CC[C@@](C)([C@H]4CC[C@](O)(CC)[C@H](C)O4)O3)O2)[C@H](C)C[C@@H]1C experimental_result=0.43
smi=CC[C@@H]([C@H](O)[C@@H](C)[C@@H](O)[C@H](C)[C@@H]1O[C@@H]([C@@H](CC)C(=O)O)CC[C@@H]1C)[C@H]1O[C@]2(C=C[C@@H](O)[C@]3(CC[C@@](C)([C@H]4CC[C@](O)(CC)[C@H](C)O4)O3)O2)[C@H](C)C[C@@H]1C experimental_result=1.19
smi=CC[C@@H]([C@@H](O)[C@@H](C)[C@@H](O)[C@H](C)[C@@H]1O[C@@H]([C@@H](CC)C(=O)O)CC[C@@H]1C)[C@H]1O[C@]2(C=C[C@@H](O)[C@]3(CC[C@@](C)([C@H]4CC[C@](O)(CC)[C@H](C)O4)O3)O2)[C@H](C)C[C@@H]1C experimental_result=1.10
smi=CC[C@@H](C(=O)[C@@H](C)[C@@H](O)[C@H](C)[C@@H]1O[C@@H]([C@@H](CC)C(=O)O)CC[C@@H]1C)[C@H]1O[C@]2(C=C[C@@H](O)[C@]3(CC[C@@](C)([C@H]4CC[C@](O)(CC)[C@H](C)O4)O3)O2)[C@H](C)C[C@@H]1C experimental_result=-0.28
